target: Calcium/calmodulin-dependent protein kinase type IV (Homo sapiens); conditions: at 0.1 µM;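 also: each value is a mean inhibition of CAMK4, part of the GSK PKIS kinase screening panel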
Please provide measured inhibition for the entries that follow.
Answers are plain numbers, in %.

Check out these entries, answers already filled in.
{"COMPOUND_STRUCTURE": "N#Cc1c(NC(=O)c2ccccc2F)sc2c1CCCC2", "SYSTEM_UNDER_TEST": "Calcium/calmodulin-dependent protein kinase type IV (Homo sapiens)", "MEASUREMENT_UNIT": "%", "VALUE_MEASURED": 0.87}
{"COMPOUND_STRUCTURE": "COC(=O)Nc1nc2cc(Oc3ccc(NC(=O)Nc4cccc(Br)c4)cc3)ccc2[nH]1", "SYSTEM_UNDER_TEST": "Calcium/calmodulin-dependent protein kinase type IV (Homo sapiens)", "MEASUREMENT_UNIT": "%", "VALUE_MEASURED": 1.41}
{"COMPOUND_STRUCTURE": "CS(=O)(=O)CCNCc1nc(-c2ccc3ncnc(Nc4ccc(OCc5cccc(C(F)(F)F)c5)cc4)c3c2)cs1", "SYSTEM_UNDER_TEST": "Calcium/calmodulin-dependent protein kinase type IV (Homo sapiens)", "MEASUREMENT_UNIT": "%", "VALUE_MEASURED": 0.68}
{"COMPOUND_STRUCTURE": "NC(=O)c1cccc(Nc2nccc(Nc3cccc(F)c3)n2)c1", "SYSTEM_UNDER_TEST": "Calcium/calmodulin-dependent protein kinase type IV (Homo sapiens)", "MEASUREMENT_UNIT": "%", "VALUE_MEASURED": 1.09}
{"COMPOUND_STRUCTURE": "c1ccc(Nc2ncc(-c3ccccc3)o2)cc1", "SYSTEM_UNDER_TEST": "Calcium/calmodulin-dependent protein kinase type IV (Homo sapiens)", "MEASUREMENT_UNIT": "%", "VALUE_MEASURED": 1.79}

For each listed entry, give its inhibition.
1. NS(=O)(=O)c1cccc(Nc2cc(-c3ccc(F)cc3)n[nH]2)c1
2. COc1ccc2ncnc(Nc3ccc(OCc4ccccc4)cc3)c2c1
3. CS(=O)(=O)Nc1cccc(-c2ccc3c(NC(=O)C4CC4)n[nH]c3c2)c1
4. CCn1c(-c2nonc2N)nc2c(C#CC(C)(C)O)nc(OCCNC)cc21
5. Cc1cc(-c2ccccn2)cc(C)c1/C=C/c1cncc(-c2nn[nH]n2)c1
6. Cc1ccc2c(c1)/C(=N/Nc1ccc(S(N)(=O)=O)cc1)C(=O)N2
7. COc1ccc(-c2nn3ncccc3c2-c2ccnc(Nc3cccc(C(F)(F)F)c3)n2)cc1
8. COc1cccc(-n2nc(C)c3c(N/N=C(\C)c4ccncc4)ncnc32)c1

1. -1.7
2. 0.01
3. 1.21
4. -0.53
5. -1.17
6. 1.05
7. 1.07
8. -0.54

====

target: Dual specificity tyrosine-phosphorylation-regulated kinase 2 (Homo sapiens) (UniProt Q92630); conditions: at 1 µM;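 also: reported values are means of DYRK2 inhibition from screening the GSK PKIS collection at 1 µM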
Sequence (Q92630 whole entry): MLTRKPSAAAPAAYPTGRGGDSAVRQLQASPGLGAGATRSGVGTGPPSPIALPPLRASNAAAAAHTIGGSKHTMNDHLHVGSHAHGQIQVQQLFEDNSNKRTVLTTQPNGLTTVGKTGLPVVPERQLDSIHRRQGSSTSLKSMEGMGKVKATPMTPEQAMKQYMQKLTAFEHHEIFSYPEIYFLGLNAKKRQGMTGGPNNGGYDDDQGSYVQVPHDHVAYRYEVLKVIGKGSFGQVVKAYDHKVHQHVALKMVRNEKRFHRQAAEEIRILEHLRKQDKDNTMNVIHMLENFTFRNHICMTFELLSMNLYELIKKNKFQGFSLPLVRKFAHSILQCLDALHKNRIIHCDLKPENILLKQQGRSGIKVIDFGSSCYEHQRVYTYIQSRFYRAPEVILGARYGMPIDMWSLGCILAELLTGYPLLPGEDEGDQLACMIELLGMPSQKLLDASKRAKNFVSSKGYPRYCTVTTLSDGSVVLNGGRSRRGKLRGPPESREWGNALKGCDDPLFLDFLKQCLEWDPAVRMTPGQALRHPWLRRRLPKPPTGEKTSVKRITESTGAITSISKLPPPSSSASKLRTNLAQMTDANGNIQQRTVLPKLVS
MEASUREMENT_TYPE: inhibition (%)
Answers are plain numbers, in %.

{"COMPOUND_STRUCTURE": "C[C@@H](Oc1cc(-n2cnc3ccc(OCC4CCN(C)CC4)cc32)sc1C(N)=O)c1ccccc1C(F)(F)F", "VALUE_MEASURED": -2.94}

Count: 8. Required value per item: inhibition.
1. CS(=O)(=O)CCNCc1nc(-c2ccc3ncnc(Nc4ccc(OCc5cccc(C(F)(F)F)c5)cc4)c3c2)cs1
2. ON=C1CCc2cc(-c3nc(C4CCNCC4)[nH]c3-c3ccncc3)ccc21
3. NS(=O)(=O)c1cccc(Nc2cc(-c3ccc(F)cc3)n[nH]2)c1
4. Cc1cc(O)cc(C)c1/C=C/c1cncc(C(=O)N(C)C)c1
5. COc1cc2ncn(-c3cc(OCc4ccccc4S(C)(=O)=O)c(C#N)s3)c2cc1OC
6. COc1cccc(-n2nc(C)c3c(N/N=C(\C)c4ccncc4)ncnc32)c1
7. Nc1ccc(C#Cc2cncnc2Nc2ccc(OCc3cccc(F)c3)c(Cl)c2)cc1
8. COc1cc(/C=N/Nc2ncnc3c2cnn3C(C)C)ccc1O

[1.03, 1.2, 4.01, 3.72, 4.87, 4.22, 0.41, 5.67]

====

target: Ephrin type-A receptor 2 (Homo sapiens); conditions: at 1 µM;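 also: value is the mean inhibition of EPHA2, measured in the GSK PKIS screen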
MEASUREMENT_TYPE: inhibition (%)
One number for each entry, in %.

{"COMPOUND_STRUCTURE": "Cc1ccc2c(-c3ccnc(Nc4ccc5c(c4)OCCO5)n3)c(-c3ccc(C(F)(F)F)cc3)nn2n1", "SYSTEM_UNDER_TEST": "Ephrin type-A receptor 2 (Homo sapiens)", "MEASUREMENT_TYPE": "inhibition", "VALUE_MEASURED": 0.72}
{"COMPOUND_STRUCTURE": "O=C(Nc1ccc(Oc2ccc3[nH]c(NC(=O)c4ccco4)nc3c2)cc1)Nc1cc(C(F)(F)F)ccc1F", "SYSTEM_UNDER_TEST": "Ephrin type-A receptor 2 (Homo sapiens)", "MEASUREMENT_TYPE": "inhibition", "VALUE_MEASURED": 82.8}
{"COMPOUND_STRUCTURE": "Cc1cc(-c2ccccn2)cc(C)c1/C=C/c1cncc(-c2nn[nH]n2)c1", "SYSTEM_UNDER_TEST": "Ephrin type-A receptor 2 (Homo sapiens)", "MEASUREMENT_TYPE": "inhibition", "VALUE_MEASURED": 2.96}
{"COMPOUND_STRUCTURE": "C[C@@H](Oc1cc(-n2cnc3ccc(OCC4CCN(C)CC4)cc32)sc1C(N)=O)c1ccccc1C(F)(F)F", "SYSTEM_UNDER_TEST": "Ephrin type-A receptor 2 (Homo sapiens)", "MEASUREMENT_TYPE": "inhibition", "VALUE_MEASURED": -3.26}

# next molecule below
Looking for the measured inhibition of NS(=O)(=O)c1cccc(Nc2cc(-c3ccc(F)cc3)n[nH]2)c1 , can you help? 0.73

====

Biological target: Serine/threonine-protein kinase D2 (Homo sapiens) (UniProt Q9BZL6);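 also: mean value of PRKD2 inhibition, from the GSK PKIS screening panel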
Sequence (whole entry): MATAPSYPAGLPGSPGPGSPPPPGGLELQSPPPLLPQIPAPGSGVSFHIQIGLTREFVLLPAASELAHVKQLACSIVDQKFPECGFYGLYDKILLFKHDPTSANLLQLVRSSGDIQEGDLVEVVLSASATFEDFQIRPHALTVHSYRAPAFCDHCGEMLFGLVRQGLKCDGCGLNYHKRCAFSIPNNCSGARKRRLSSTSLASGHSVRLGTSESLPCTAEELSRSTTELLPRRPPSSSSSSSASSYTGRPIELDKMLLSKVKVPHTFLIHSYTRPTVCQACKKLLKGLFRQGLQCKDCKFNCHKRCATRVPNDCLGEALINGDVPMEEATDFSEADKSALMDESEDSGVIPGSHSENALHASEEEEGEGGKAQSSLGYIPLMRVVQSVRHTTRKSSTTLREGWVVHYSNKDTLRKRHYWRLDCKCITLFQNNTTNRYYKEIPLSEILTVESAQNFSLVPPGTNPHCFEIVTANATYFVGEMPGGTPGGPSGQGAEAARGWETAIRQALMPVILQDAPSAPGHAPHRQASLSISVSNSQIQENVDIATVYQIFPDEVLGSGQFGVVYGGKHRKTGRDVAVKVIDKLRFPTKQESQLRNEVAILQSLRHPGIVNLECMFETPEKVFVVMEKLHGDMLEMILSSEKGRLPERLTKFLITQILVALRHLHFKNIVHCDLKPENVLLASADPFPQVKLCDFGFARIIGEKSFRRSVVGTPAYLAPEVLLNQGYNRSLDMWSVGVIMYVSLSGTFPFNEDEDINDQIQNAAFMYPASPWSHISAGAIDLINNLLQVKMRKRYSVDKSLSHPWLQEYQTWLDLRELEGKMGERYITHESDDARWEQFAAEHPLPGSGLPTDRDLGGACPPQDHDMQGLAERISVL
Conditions: at 1 µM
MEASUREMENT_TYPE: inhibition (%)
Answers are plain numbers, in %.

{"COMPOUND_STRUCTURE": "COc1cc2ncn(-c3cc(OCc4ccccc4S(C)(=O)=O)c(C#N)s3)c2cc1OC", "VALUE_MEASURED": 4.79}
{"COMPOUND_STRUCTURE": "C[C@@H](Oc1cc(-n2cnc3ccc(OCC4CCN(C)CC4)cc32)sc1C(N)=O)c1ccccc1C(F)(F)F", "VALUE_MEASURED": 22.1}
{"COMPOUND_STRUCTURE": "CS(=O)(=O)Nc1cccc(-c2ccc3c(NC(=O)C4CC4)n[nH]c3c2)c1", "VALUE_MEASURED": 3.59}
{"COMPOUND_STRUCTURE": "Cc1ccc(NC(=O)CC2CC2)cc1-c1ccc(C(=O)NCC2CC2)cc1", "VALUE_MEASURED": 3.78}
{"COMPOUND_STRUCTURE": "COc1cc(Nc2nccc(-c3cnn4ncccc34)n2)cc(OC)c1", "VALUE_MEASURED": 15.9}
{"COMPOUND_STRUCTURE": "Oc1cccc(-c2nc(-c3ccccc3)[nH]c2-c2ccncc2)c1", "VALUE_MEASURED": 7.13}

Look at each compound and report its inhibition.
1. NS(=O)(=O)c1ccc(-c2cc3ccncc3cc2OCc2ccccc2)cc1
2. OCc1ccc(-c2nc(-c3ccccn3)c(-c3ccc4c(c3)OCO4)[nH]2)cc1
3. COc1cccc(-n2ncc3c(N/N=C/c4ccc(S(C)(=O)=O)cc4)ncnc32)c1
4. c1ccc(Cc2nc3ccc(Nc4ncnc5ccccc45)cc3[nH]2)cc1
5. CS(=O)(=O)CCNCc1nc(-c2ccc3ncnc(Nc4ccc(OCc5cccc(C(F)(F)F)c5)cc4)c3c2)cs1
6. Cc1ccc2c(c1)/C(=N/Nc1ccc(S(N)(=O)=O)cc1)C(=O)N2

[4.54, 9.51, -2.8, 4.57, 0.2, 1.97]

Please state inhibition for every compound in the list that follows.
1. CCS(=O)(=O)c1ccc(OC)c(Nc2nccc(N(C)c3ccc4c(C)n[nH]c4c3)n2)c1
2. NS(=O)(=O)c1ccc(N/N=C2\C(=O)Nc3ccc(Cl)cc32)cc1
3. CC(C)c1ccc2c(c1)NC(=O)/C2=N/Nc1ccc(S(N)(=O)=O)cc1
4. CN(C)c1cc2c(Nc3ccc4c(cnn4Cc4ccccc4)c3)ncnc2cn1
5. Cc1nc(-c2ccccc2)n2nc(NCCCN3CCOCC3)ncc12
6. O=C1Nc2ccccc2/C1=C/Nc1ccc2[nH]c(=O)[nH]c2c1
7. Cc1ccc(C(=O)NC2CC2)cc1-c1ccc2[nH]ncc2c1

1: 3.25; 2: 5.28; 3: -0.41; 4: 4.01; 5: 2.01; 6: 14; 7: 0.22

Which value of inhibition has been reported for CN(c1ccc(NC(=O)Nc2ccc(OC(F)(F)F)cc2)cc1)c1ccnc(Nc2cccc(S(N)(=O)=O)c2)n1 in the records? 3.78
